system: hT40, dGA, dGAE and truncated tau fragments; assay: Binding ELISA / epitope mapping of anti-tau scAbs with truncated tau proteins and 13mer peptides; parameters: species or system human; conditions: residue numbers of SEQ ID NO: 1 (hT40); CDR Tables 1-11
Property measured: Epitope

Molecule	Epitope
3aD3: N-terminal anti-tau clone, Table 6; SEQ ID NO: 422 (protein, 3aD3 amino acid sequence) QVQLQESGPSLVKPSQTLSLTCTVSGFSLTSNGVGWVRRAPGKVPEWVGDISSGGKVYGHPALKSRLSITRDTSKSQVSLSVSSVTSEDTAVYYCVRCRDGGVSYGYDSDYWGPGLLVTVSSEGKSSGASGESKVDDQAVVTQPSSVSKSLGQSVSITCSGSSSNVGYGDYVGWFQQVPGSAPKLLIYGVTERASGVPDRFSGSRSGNTATLTISSIQAEDEADYYCASYDDSSGGIFGSGTRLTVLG	1-49

Now take the following molecule into account.
[Q] Which Epitope value belongs to MD9: anti-tau clone, Table 10; SEQ ID NO: 373 (protein, MD9 amino acid sequence) scFv: QVRLQESGPSLVKSSQTLSLTCTVSGFSLTRESIAWVRQAPGKVPEWLGGVGIDGTSYYSPALKSRLSITRDTSKSQASLSLSSVATEDTAMYYCARNYIDFEYWGPGLLVTVSSEGKSSGASGESKVDDQAVLTQLSSVSGSLGQRISITCSGSSSNVGIYDVSWFQQLPGSGLRTVIYGTNNRPSGVPDRFSGSRSGNTATLTISSLQSEDEAIYYCAAGDSSTIAVFGSGTRLTVLG ?
[A] 373-385
